meta.source: patent US8039639B2

TEST SYSTEM: Abl (T315I) (Homo sapiens, UniProt P00519, T315I)
METHOD: protein kinase IC50 determination (ATP at Km)
RECORDED CONDITIONS: ATP concentration at Km
MEASURED PARAMETER: pIC50
Kindly note that pIC50 refers to -log10 of the concentration in mol/L and answer with the value alone.

Ask | Please give the documented pIC50 of Cc1ccc(-n2nc(C(C)(C)C)cc2NC(=O)NCc2cc(F)ccc2Oc2ccc3c(cnn3CCO)c2)cc1 [Compound 72]
Reply | 7.17

---

METHOD: Solubility determination
Assay type: physicochemical
RECORDED CONDITIONS: pH 6.5, aqueous buffer
MEASURED PARAMETER: solubility

Ask | Please give the documented solubility of Cc1ccc(-n2nc(C(C)(C)C)cc2NC(=O)NCc2cc(F)ccc2Oc2ccc3c(cnn3C)c2)cc1
Reply | < 1 µg/mL

Next:
Ask | Please give the documented solubility of Cn1nc(C(C)(C)C)cc1NC(=O)NCc1cc(F)ccc1Oc1ccc2c(cnn2CC(C)(C)O)c1
Reply | < 1 µg/mL

---

TEST SYSTEM: CYP3A4 (Homo sapiens, UniProt P08684)
Construct: using pooled human liver microsomes (n=1); from tissue; host or cells: pooled human liver microsomes
Sequence (P08684 whole entry): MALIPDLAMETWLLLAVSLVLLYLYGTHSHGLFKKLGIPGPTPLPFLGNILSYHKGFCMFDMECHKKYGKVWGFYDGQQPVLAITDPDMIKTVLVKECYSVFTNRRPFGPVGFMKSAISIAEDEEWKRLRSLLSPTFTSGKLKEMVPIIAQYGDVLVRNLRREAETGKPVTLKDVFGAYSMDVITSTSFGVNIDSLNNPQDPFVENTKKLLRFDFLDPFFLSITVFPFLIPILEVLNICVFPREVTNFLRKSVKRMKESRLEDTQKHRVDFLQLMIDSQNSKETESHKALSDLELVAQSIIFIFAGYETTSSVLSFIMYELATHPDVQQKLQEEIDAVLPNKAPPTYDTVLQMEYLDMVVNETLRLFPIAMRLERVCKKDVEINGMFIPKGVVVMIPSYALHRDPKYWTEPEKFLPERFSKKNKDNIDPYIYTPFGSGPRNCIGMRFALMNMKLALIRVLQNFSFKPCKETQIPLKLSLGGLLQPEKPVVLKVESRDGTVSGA
METHOD: CYP inhibition assay (LC/MS, pooled human liver microsomes)
Format: in vitro ADME
RECORDED CONDITIONS: substrate Midazolam, n=1
pIC50: −log10 of the molar value.
MEASURED PARAMETER: pIC50

Ask | Please give the documented pIC50 of Cc1ccc(-n2nc(C(C)(C)C)cc2NC(=O)NCc2cc(F)ccc2Oc2ccc3c(cnn3CCO)c2)cc1
Reply | ~5.10

---

TEST SYSTEM: UniProtKB P42684
Sequence (P42684 whole entry): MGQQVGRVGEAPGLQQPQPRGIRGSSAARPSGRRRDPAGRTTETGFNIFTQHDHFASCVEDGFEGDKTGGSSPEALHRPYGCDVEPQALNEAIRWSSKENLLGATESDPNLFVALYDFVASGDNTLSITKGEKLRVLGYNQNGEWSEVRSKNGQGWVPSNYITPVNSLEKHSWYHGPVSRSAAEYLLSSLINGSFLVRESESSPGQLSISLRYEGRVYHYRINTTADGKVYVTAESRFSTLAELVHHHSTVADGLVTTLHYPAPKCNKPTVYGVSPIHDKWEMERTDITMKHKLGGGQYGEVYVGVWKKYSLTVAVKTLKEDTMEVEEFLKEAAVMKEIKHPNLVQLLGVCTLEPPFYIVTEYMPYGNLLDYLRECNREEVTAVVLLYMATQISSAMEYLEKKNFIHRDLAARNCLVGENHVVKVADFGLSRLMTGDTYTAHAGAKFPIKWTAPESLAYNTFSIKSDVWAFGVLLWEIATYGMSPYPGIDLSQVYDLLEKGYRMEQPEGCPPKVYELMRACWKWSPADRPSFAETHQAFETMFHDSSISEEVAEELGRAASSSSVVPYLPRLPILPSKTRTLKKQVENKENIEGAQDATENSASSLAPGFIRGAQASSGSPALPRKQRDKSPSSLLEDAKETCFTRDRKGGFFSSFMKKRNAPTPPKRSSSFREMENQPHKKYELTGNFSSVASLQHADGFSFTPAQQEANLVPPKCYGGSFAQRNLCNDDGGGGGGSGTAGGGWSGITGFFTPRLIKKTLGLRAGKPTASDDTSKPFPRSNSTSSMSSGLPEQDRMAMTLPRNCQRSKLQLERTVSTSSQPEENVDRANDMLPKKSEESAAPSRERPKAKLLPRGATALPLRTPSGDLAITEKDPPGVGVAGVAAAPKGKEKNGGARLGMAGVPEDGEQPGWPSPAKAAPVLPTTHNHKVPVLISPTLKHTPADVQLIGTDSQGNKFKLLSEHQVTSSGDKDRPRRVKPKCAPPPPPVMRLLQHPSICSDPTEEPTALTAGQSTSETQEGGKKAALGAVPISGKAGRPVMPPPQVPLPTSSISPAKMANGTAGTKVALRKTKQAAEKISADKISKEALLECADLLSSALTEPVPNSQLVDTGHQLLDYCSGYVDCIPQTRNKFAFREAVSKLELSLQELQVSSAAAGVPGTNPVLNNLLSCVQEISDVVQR
MEASURED PARAMETER: pIC50
Kindly note that pIC50 refers to -log10 of the concentration in mol/L and answer with the value alone.

Ask | Please give the documented pIC50 of Cc1ccc(-n2nc(C(C)(C)C)cc2NC(=O)NCc2cc(F)ccc2Oc2ccc3c(cnn3CCO)c2)cc1 [Compound 72]
Reply | 8.00

---

METHOD: Solubility determination
Format: physicochemical
RECORDED CONDITIONS: aqueous buffer; pH 3.0
MEASURED PARAMETER: solubility

Ask | Please give the documented solubility of Cc1ccc(-n2nc(C(C)(C)C)cc2NC(=O)NCc2cc(F)ccc2Oc2ccc3c(cnn3CCO)c2)cc1
Reply | < 5 µg/mL

---

METHOD: Pharmacokinetics in rat
Assay type: in vivo, male Sprague-Dawley rats
RECORDED CONDITIONS: male, Sprague-Dawley, plasma, IV: 1 mg/kg, read-out: Vz
Excerpt: Non-compartmental (model independent) methods were used to analyze the plasma concentration time-curves derived from all species as described below. Clearance (Cl), calculated percent extraction ratios (ER %), volume of distribution (Vz), time to […] (t1/2) and exposure (AUC, area under the curve) values are provided below for mouse, rat, and monkey, respectively. 2. […] Blood was sampled at the same time points as listed for the Mouse PK study.
MEASURED PARAMETER: Vd (L/kg)
Hi! Could you send only the number? It should be in L/kg, unit omitted.

Ask | Please give the documented Vd of Cc1ccc(-n2nc(C(C)(C)C)cc2NC(=O)NCc2cc(F)ccc2Oc2ccc3c(cnn3CCO)c2)cc1
Reply | 0.048
